Assay name: Biodistribution of radiotracers in normal mice
Format: in vivo, mouse
Reported conditions: normal male mice, 2 min
Property: Biodistribution: Heart (% dose/g)
Answers are plain numbers, in % dose/g.

Below, each entry is followed by its recorded Biodistribution: Heart result.
[[record]]
compound = "O=C(O)CCc1ccc2c(c1)C[N+]13CC[N+]45CC(=O)[O][68Ga-3]14([O]C(=O)C3)([O]2)[O]c1ccc(CCC(=O)NCC(=O)N[C@@H](Cc2ccc(OCC(=O)N[C@@H](Cc3ccccc3)C(=O)NCCCC[C@H](NC(=O)N[C@@H](CCC(=O)O)C(=O)O)C(=O)O)cc2)C(=O)O)cc1C5 (stereo partly drawn) [[^68Ga]5b]"
property = "Biodistribution: Heart"
unit_abbrev = "% dose/g"
recorded_measurement = 4.33

[[record]]
compound = "O=C(O)CCc1ccc2c(n1)C[N+]13CC[N+]45CC(=O)[O][68Ga-3]14([O]C(=O)C3)([O]2)[O]c1ccc(CCC(=O)NCCCCCC(=O)NCCCC[C@H](NC(=O)N[C@@H](CCC(=O)O)C(=O)O)C(=O)O)nc1C5 (stereo partly drawn) [[^68Ga]2]"
property = "Biodistribution: Heart"
unit_abbrev = "% dose/g"
recorded_measurement = 3.40


Here are 4 compounds. What values of Biodistribution: Heart were reported for them?
1. O=C(O)CC[C@H](NC(=O)CCc1ccc2c(c1)C[N+]13CC[N+]45CC(=O)[O][68Ga-3]41([O]C(=O)C3)([O]c1ccc(CCC(=O)NCCCCCC(=O)NCCCC[C@H](NC(=O)N[C@@H](CCC(=O)O)C(=O)O)C(=O)O)cc1C5)[O]2)C(=O)O (stereo partly drawn) [[^68Ga]1f]
2. O=C(O)CC[C@H](NC(=O)N[C@@H](CCCCNC(=O)CCCCCNC(=O)CCc1ccc2c(c1)C[N+]13CC[N+]45CC(=O)[O][68Ga-3]14([O]C(=O)C3)([O]2)[O]c1ccc(CCC(=O)N[C@@H](CC(=O)O)C(=O)O)cc1C5)C(=O)O)C(=O)O (stereo partly drawn) [[^68Ga]1e]
3. O=C(O)CC[C@H](NC(=O)N[C@@H](CCCCNC(=O)CCCCCNC(=O)CCc1ccc2c(c1)C[N+]13CC[N+]45CC(=O)[O][68Ga-3]14([O]C(=O)C3)([O]2)[O]c1ccc(CCC(=O)NCCNC(=O)CN2CCN(CC(=O)O)CCN(CC(=O)O)CCN(CC(=O)O)CC2)cc1C5)C(=O)O)C(=O)O (stereo partly drawn) [[^68Ga]1g]
4. O=C(O)CCc1ccc(O)c(CN(CCN(CC(=O)O)Cc2cc(CCC(=O)NCCCCCC(=O)NCCCC[C@H](NC(=O)N[C@@H](CCC(=O)O)C(=O)O)C(=O)O)ccc2O)CC(=O)O)n1 [[^68Ga]4a, metal not drawn]

## Result
3.23
3.12
2.82
3.62
